Recorded values, source ChEMBL document CHEMBL1138582.

assay: Electrophilicity, glutathione reactivity assessed as half life; type: physicochemical
Each entry below carries its reported logt1/2.
When you answer, write just the number.

# example entries with known answers
QUERY_SMILES	logt1/2
CN(C)c1nc(C#N)nc(Nc2ccccc2)c1N	3
CN(C)c1cc(Nc2ccccc2)nc(C#N)n1	2.12
CNc1cc(N(C)C)nc(C#N)n1	2.67
CNc1nc(C#N)nc(N(C)C)c1N	3.38
CN(C)c1cc(N(C)C)nc(C#N)n1	2.56

Lookup: Given the compound "CN(C)c1nc(C#N)nc(Nc2ccccc2)n1" , what is its reported logt1/2?
Found: 2.07

Lookup: Which value of logt1/2 has been reported for "CN(C)c1nc(C#N)nc(N(C)C)c1N" in the records?
Found: 3.26

Lookup: What measured logt1/2 goes with "COc1c(Nc2ccccc2)nc(C#N)nc1N(C)C" ?
Found: 2.31

Lookup: What measured logt1/2 goes with "CN(C)c1nc(C#N)nc(Oc2ccccc2)c1N" ?
Found: 2.98

Lookup: Name the recorded logt1/2 for "CNc1nc(C#N)nc(N(C)C)c1Br" .
Found: 2.19

Lookup: I am curious: what logt1/2 value has been reported for "CNc1c(Nc2ccccc2)nc(C#N)nc1N(C)C" ?
Found: 2.91
